test: NCI Yeast Anticancer Drug Screen. Data for the sgs1 mgt1 strain (AID 161);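 note: 0% = growth of cultures given vehicle only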; conditions: S. cerevisiae sgs1 mgt1 strain, at 5.0 µM (retest, dose inferred, filed as 0.5), stronger effect = higher value
This is part of a sample that, as a whole, favours compounds with a hit. Of some 79,000 tested, about 15% had one in any assay.
Threshold rule: growth inhibition greater than or equal to 30% is Yes; below that, No.

compound	discreteLabel
[Cl-].[La+3].[O-]/N=C(\c1ccccc1)c1ccccn1.[O-]/N=C(\c1ccccc1)c1ccccn1.[O-]/N=C(\c1ccccc1)c1ccccn1	Yes
CC(=O)c1ccc(Cl)c(N=Cc2cc(Br)ccc2O)c1	Yes
CCCCCCN(CCCCCC)CCC(=O)c1ccc2cc(Cl)c3ccccc3c2c1	Yes
O=c1ccn(C2OC(COC(c3ccccc3)(c3ccccc3)c3ccccc3)C(O)C2O)c(=O)[nH]1 (stereo not drawn)	No
CS(=O)(=O)C(c1nc2nnc(NC(=O)Nc3ccc(Cl)cc3)n2[nH]c1=O)c1nc2nnc(NC(=O)Nc3ccc(Cl)cc3)n2[nH]c1=O	No
Cn1c2c(c3ccccc31)CCN(CCCN1CCN(c3ccccc3)CC1)C2=O	Yes
CCCNCCCC(C)Nc1cc(OC)cc2c(C)ccnc12 (stereo not drawn)	No
Cc1ccc(Nc2nc3c(s2)C(=O)c2ccccc2C3=O)c(C)c1	No
OCCCCCCCCCl	No
CC(C)CCC(C)(C)c1cc(O)ccc1O	No
CN1C=Cc2ccccc2C1C(C1c2ccccc2C=CN1C)[N+](=O)[O-] (stereo not drawn)	No
CC/C(=C(/CC)c1ccc(O)cc1)c1ccc([O-])cc1.CC/C(=C(/CC)c1ccc(O)cc1)c1ccc([O-])cc1.O=C([CH-]C(=O)c1ccccc1)c1ccccc1.O=C([CH-]C(=O)c1ccccc1)c1ccccc1.[Ti+4]	Yes
O=C1c2ccc(O)c(O)c2C(=O)c2c(O)ccc(O)c21	Yes

* * *

The reader will find reported growth inhibition values listed item by item below.
experiment: NCI Yeast Anticancer Drug Screen. Data for the mec2-1 strain (AID 157); settings: S. cerevisiae mec2-1 strain, at 5.0 µM (retest, dose inferred, filed as 0.5), stronger effect = higher value
Compounds without any hit were thinned out: in the full panel of roughly 79,000, 15% have a hit.
measuredQuantity: growth inhibition (%)

compound	measuredQuantity	quantitativeReadout
COC(=O)C(=O)C(=O)C1CCCC(c2ccccc2)C1=O (centres undefined)	growth inhibition	0
C/C(=N\NC(=S)Nc1ccc([N+](=O)[O-])cc1)c1nc2ncccc2[nH]1	growth inhibition	-22
CCC(O)C(O)(c1ccccc1)c1nc2ccccc2s1 (centres undefined)	growth inhibition	5
CO[C@H]1CC[C@@]2(C)C(=CC[C@H]3[C@@H]4C[C@H](OC(C)=O)C[C@@]4(C)CC[C@@H]32)C1	growth inhibition	2
Cc1ccc(O)c(Cc2ccc(Cl)cc2)c1	growth inhibition	-54
COc1ccc2c(C)cc(N/N=C(\C)c3ccccn3)nc2c1	growth inhibition	-3
S=c1[nH]c2ccc(Br)cc2c(=S)n1-c1ccccc1	growth inhibition	1
N#CC1=C(N)OC(/C=C/c2ccccc2)=C(C#N)C1c1ccccc1 (centres undefined)	growth inhibition	25
C=CS(=O)(=O)c1ccc(C)cc1	growth inhibition	6

* * *

Assay: NCI Yeast Anticancer Drug Screen. Data for the sgs1 mgt1 strain (AID 161);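 note: 0% = growth of cultures given vehicle only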
Details: S. cerevisiae sgs1 mgt1 strain, at 5.0 µM (retest, dose inferred, filed as 0.5), stronger effect = higher value
Description: Growth inhibition of yeast strains with defined genetic alterations is measured as a screen for potential anti-cancer activity. Selected strains with alterations in DNA damage repair or cell cycle control were exposed to compounds and growth inhibition was measured relative to vehicle treated controls. The strain used in this assay is sgs1 mgt1
Compounds without any hit were thinned out: in the full panel of roughly 79,000, 15% have a hit.

compound	growth inhibition [%]
CN1C(=O)c2ccccc2C1(c1ccccc1)c1ccccc1	4
CN(/N=C\c1ccc(Cl)cc1)C(c1ccc(Cl)cc1)N(C)/N=C/c1ccc(Cl)cc1 (configuration not stated)	-3
CCOC(=O)/C=C(\NC1CC(OC2C[C@](O)(C(C)=O)Cc3c(O)c4c(c(O)c32)C(=O)c2c(OC)cccc2C4=O)OC(C)C1O)C(=O)OCC (some centres not stated)	40
C=CS(=O)(=O)c1ccc2ccccc2c1	-20
CCN(CC)c1ccc(/C=C2/C[N+](C)(C)C/C(=C/c3ccc(N(CC)CC)cc3)C2=O)cc1	-13
CN(C)N=Nc1ccc(-c2ccccc2)cc1	6
O=[N+]([O-])c1cc(F)c(Sc2cc(Br)c([N+](=O)[O-])cc2F)cc1Br	-1
Cc1cc(Oc2nc(Cl)nc(C(Cl)(Cl)Cl)c2Cl)cc(C)c1N(C)C (tested in a mixture with another compound)	-2
Nc1ccc(-c2ccc(Cl)cc2)cc1	-1
Cc1[nH]c2c(C)cccc2c1C1Cc2ccccc2N1 (configuration not stated)	-12
O=C1CCCC1C(=O)OC1CCCC1 (configuration not stated)	7
Cc1cc(C)c(N2C(=O)C=CC2=O)c(C)c1	99
O=[N+]([O-])c1cccc2c[n+](Cc3ccccc3)ccc12	-4
NS(=O)(=O)c1ccc(N=Cc2c3ccccc3nc3cc(Cl)ccc23)cc1	16
COC(=O)/C=N/O	-5
N/N=C(/N)SCCCCCCCCCCS/C(N)=N/N	-35
O=C(O)/C=C/C(=O)Nc1cccc2ccccc12	21
CN1C(=O)C(C2C(=O)N(C)C(=O)N(C)C2=O)C(=O)N(C)C1=O	0
COC(=O)CCc1c(Cc2ccc[nH]2)[nH]c(C(=O)OCc2ccccc2)c1C	-12
CC1(C)OC2C(COC(c3ccccc3)(c3ccccc3)c3ccccc3)OC(n3cnc4c(N)ncnc43)C2O1 (configuration not stated)	11
O=C(CC[P+](c1ccccc1)(c1ccccc1)c1ccccc1)c1ccccc1	4
O=C(O)CSCc1cc2c3ccccc3sc2c2ccccc12	30
C/C(=N\NC(N)=S)C(CN1CCCCC1)C(C1=C(O)c2ccccc2OC1)c1ccccc1 (configuration not stated)	19
O=C(/C=C/c1ccccc1)CCN1CCN(CCC(=O)/C=C/c2ccccc2)CC1	40
CCCCNc1ccc(-c2c(N)nc(N)nc2CC)cc1[N+](=O)[O-]	-9
O=C1/C(=C/N2CCN(c3ccccc3)CC2)Cc2c(Cl)cccc21	7
N#Cc1ccc(C(F)(F)F)cc1[N+](=O)[O-]	63

* * *

assay: NCI Yeast Anticancer Drug Screen. Data for the bub3 strain (AID 167); conditions: S. cerevisiae bub3 mutant strain, at 5.0 µM (retest, dose inferred, filed as 0.5), stronger effect = higher value
This is part of a sample that, as a whole, favours compounds with a hit. Of some 79,000 tested, about 15% had one in any assay.

compound	readoutUnit	growth inhibition
CN(C)CC(=O)OCC[N+](C)(C)C	%	6
COC(=O)C1=C(/C=C/C(C)=O)NC(C)=C(C(=O)OC(C)C)C1c1ccccc1Cl (stereo not drawn)	%	40
COC(=O)CCC(NC(=S)N/N=C(\C)c1cnc2ccccc2n1)C(=O)OC (stereo not drawn)	%	12
CCOC(=O)/C(C#N)=C/c1ccccc1Br	%	31
O=C(Nc1c(Cl)cccc1Cl)Oc1c(Br)cc(Br)cc1Br	%	58
CCCCCCCCCCCC(O)=C1C(=O)CC(O)CC1=O (stereo not drawn)	%	42
Cc1cc(C2C(O)C(c3cc(C)on3)C2(C)O)no1 (stereo not drawn)	%	2
COc1ccc2nc3c([N+](=O)[O-])ccc(NCCCN(C)C)c3c(N)c2c1	%	-22
ONC1=Nc2ccccc2OCc2cc(Br)c(Br)cc2COc2ccccc2N=C1NO	%	13
O=C(O)c1cc(-c2ccc3c(c2)Nc2ccccc2S3)nc2ccc(F)cc12	%	33
COc1cc2c(cc1OC)c1c(OC)c(OC)cc3c1c1c2sc(=S)n1CC3	%	4
Nc1cc2c(nc3c4ccccc4c(N)cc3[n+]2-c2cccc3ccccc23)c2ccccc12 (tested in a mixture with another compound)	%	61
Nc1cc(Cl)ccc1C(=O)O	%	3
CCC1C(c2ccccc2O)c2cc3c(cc2OC1N1CCOCC1)OCO3 (stereo not drawn)	%	-50
N#CC1=C(N)OC(/C=C/c2ccccc2)=C(C#N)C1c1ccccc1 (stereo not drawn)	%	23
O=C(O)c1c(Br)c(Br)c(Br)c(Br)c1-c1c2ccc(=O)cc-2oc2cc(O)ccc12	%	91
COc1ccccc1N=Nc1c(N)nc(N)[nH]c1=O	%	-2
NNc1ccc(Br)cc1	%	98
CC(O)C(O)C(O)C(O)C(O)C(=O)O (stereo not drawn)	%	0
Nc1ccc2c(c1)[nH]c(=O)c1ccc(Cl)cc12	%	-52
Oc1c(Cl)cc(Cl)cc1C=Nc1cc(C(F)(F)F)ccc1Cl	%	5
Cc1ccc(S(=O)(=O)N/N=C2/CC[C@H](C(C)(C)C)C[C@@H]2C)cc1	%	-18
OCC1OC(NC(=S)NCSCCC(F)(F)C(F)(F)C(F)(F)C(F)(F)C(F)(F)C(F)(F)F)C(O)C(O)C1O (stereo not drawn)	%	7
O=C(C1=Cc2ccccc2OC1)N1CCN(c2cccc(Cl)c2)CC1	%	10
CCNC(=O)COc1ccc(Cl)cc1Cl	%	-5
Nc1ccc(S(=O)(=O)C23CC4CC(CC(C4)C2)C3)cc1	%	64
CC(C)OP(=O)(CCCCCCCCC/C=C/c1ccc2c(c1)OCCOCCOCCOCCO2)OC(C)C	%	-11
Nc1ccc2nnnn2c1	%	10
Clc1ccc(Cl)c(SCCCN2CCNCC2)c1	%	18
O=C(O)c1ccccc1N=N/C(=N\Nc1cc(S(=O)(=O)O)ccc1O)c1ccccc1	%	1
COc1ccc2c(c1)CC1c3c(ccc(OC)c3O)CC2N1C (stereo not drawn)	%	-4
O=C(O)C1C(C(=O)Nc2ccc3c(c2)Cc2ccccc2-3)C2(Cl)C(Cl)=C(Cl)C1(Cl)C2(Cl)Cl (stereo not drawn)	%	14
C/C=C/C=C1\C=Cc2c(C(=O)OC)coc(=O)c21	%	15
